// data source = ChEMBL document CHEMBL3351251

# Assay comment: Cytotoxicity against LPS-stimulated mouse RAW264.7 cells assessed as cell viability at 5 mg/L incubated for 24 hrs by alamar blue assay
# Format: cell-based
# Setup conditions: LPS-stimulated RAW264.7 cells, read-out: Activity
Please go through the items and note down their viability at 24 h, 5 mg/L.
Numbers only, in %.

| Given smiles | Measured result |
| --- | --- |
| COc1ccc(-c2cc3cc(Br)cc(OC)c3oc2=O)cc1OC | 98 |

Give viability at 24 h, 5 mg/L for each of the items listed below.
1. O=c1oc2c(Cl)cc(Cl)cc2cc1-c1ccccc1
2. COc1cc(Br)cc2cc(-c3ccc(O)cc3)c(=O)oc12
3. COc1cc(Br)cc2cc(-c3ccc(F)cc3)c(=O)oc12

1: 104; 2: 24.4; 3: 103

----------
# Tested on: RAW264.7
# Assay comment: Anti-inflammatory activity in mouse RAW264.7 cells assessed as inhibition of LPS-induced nitric oxide production pre-incubated for 2 hrs before LPS stimulation for 24 hrs
# Type: functional, cell-based
Please go through the items and note down their IC50.
Give your result as the value with the unit written after it.

Known results for compounds:
| Given smiles | IC50 |
| --- | --- |
| COc1cc(/C=C/C(=O)CC(=O)/C=C/c2ccc(O)c(OC)c2)ccc1O | 6.2 µM |
| COc1cccc(-c2cc3cc(Br)cc(OC)c3oc2=O)c1 | 6.9 µM |

Now consider a different compound.
Form field - read-out: IC50; system: RAW264.7; submitted item: COc1ccccc1-c1cc2cc(Cl)cc(Cl)c2oc1=O
8.5 µM

----------
Please go through the items and note down their viability at 24 h, 5 mg/L.
# Assay comment: Cytotoxicity against LPS-stimulated mouse RAW264.7 cells assessed as cell viability at 5 mg/L incubated for 24 hrs by alamar blue assay
# Format: cell-based
# Setup conditions: LPS-stimulated RAW264.7 cells, read-out: Activity
Give your result as the value with the unit written after it.

Give viability at 24 h, 5 mg/L for each of the items listed below.
1. COc1ccc(-c2cc3ccccc3oc2=O)cc1
2. COc1ccc(OC)c(-c2cc3cc(Br)cc(OC)c3oc2=O)c1
3. COc1ccc(-c2cc3cc(Cl)cc(Cl)c3oc2=O)cc1
4. O=c1oc2ccccc2cc1-c1ccccc1
5. COc1ccc(-c2cc3ccccc3oc2=O)cc1OC

1: 93.4%; 2: 93.5%; 3: 99.3%; 4: 104%; 5: 47%

Give viability at 24 h, 5 mg/L for each of the items listed below.
1. COc1cccc2cc(-c3ccccc3)c(=O)oc12
2. COc1ccccc1-c1cc2cc(Cl)ccc2oc1=O
3. COc1ccc(-c2cc3cc(Cl)ccc3oc2=O)cc1OC
4. COc1ccccc1-c1cc2cc(Br)cc(OC)c2oc1=O

1. 64.5%
2. 115%
3. 105%
4. 95.7%

Give viability at 24 h, 5 mg/L for each of the items listed below.
1. COc1cccc(-c2cc3cc(Cl)cc(Cl)c3oc2=O)c1
2. COc1cccc2cc(-c3ccc(F)cc3)c(=O)oc12

1: 105%; 2: 127%

----------
# Assay comment: Cytotoxicity against LPS-stimulated mouse RAW264.7 cells assessed as cell viability at 5 mg/L incubated for 24 hrs by alamar blue assay
# Format: cell-based
# Setup conditions: LPS-stimulated RAW264.7 cells, read-out: Activity
Property name: viability at 24 h, 5 mg/L (%)
Numbers only, in %.

Known results for compounds:
| Given smiles | viability at 24 h, 5 mg/L (%) |
| --- | --- |
| COc1cccc2cc(-c3ccc(Cl)cc3)c(=O)oc12 | 93.5 |
| COc1cccc(-c2cc3cc(Br)cc(OC)c3oc2=O)c1 | 116 |
| COc1cc(Br)cc2cc(-c3cccnc3)c(=O)oc12 | 84.9 |

Give viability at 24 h, 5 mg/L for each of the items listed below.
1. COc1ccc(-c2cc3cccc(OC)c3oc2=O)cc1
2. COc1cc(Br)cc2cc(-c3ccccc3)c(=O)oc12
3. COc1ccccc1-c1cc2cc(Cl)cc(Cl)c2oc1=O
4. COc1ccc(-c2cc3cccc(OC)c3oc2=O)cc1OC

81.3
29.6
119
87.7

Reported viability at 24 h, 5 mg/L for COc1cccc(-c2cc3ccccc3oc2=O)c1 : what is it?
48.4
